Tested on: MALME-3M melanoma
Experiment: NCI tumour cell line growth inhibition, 48 h
ASSAY_ENDPOINT: TGI

Solved entries (count: 3):
>>> measured_value("CSc1nc(NC2OCC(OC(C)=O)C(OC(C)=O)C2OC(C)=O)c2c(n1)OCC2=O (centres undefined)")
"> 100 µM"
>>> measured_value("O=C1NC(=NCc2ccc(F)cc2)N/C1=C\\c1ccccc1Cl")
"41.8 µM"
>>> measured_value("CC(C)C1=CC2=CC[C@@H]3[C@](C)(CCC[C@@]3(C)C(=O)O)[C@H]2CC1")
"> 100 µM"

QUERY: Please indicate recorded TGI of CCN1C(=O)N(CC)C2C1NN=c1s/c(=C\c3ccc(C(F)(F)F)cc3)c(=O)n12 (centres undefined) measured with MALME-3M melanoma.
RESULT: > 47.2 µM
